- System: PPARg:RXRa 30nM:10nM, anti-RXR (NR concentration 30 nM, RXRa partner concentration 10 nM)
- test.description: PBM binding z-score (relative to random genomic background probes); higher = stronger binding; sequences stand for … in GC…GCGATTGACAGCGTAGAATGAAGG
measurement.type: PBM binding z-score
Output: the number by itself.

Q: # input sequence: TCTCGGAGGACACGCAAGGTCAGAGCTCGACATC ; wanted: its PBM binding z-score
A: 2.16

Q: # input sequence: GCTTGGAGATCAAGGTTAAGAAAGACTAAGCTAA ; wanted: its PBM binding z-score
A: 0.225

Q: # input sequence: ATCGAAAGGTCGGGGTGAGTATAGAGAAAGGGAA ; wanted: its PBM binding z-score
A: 1.07

Q: # input sequence: CAAACTAGGTCACCGGAAGGTCAAAGTGCGCATG ; wanted: its PBM binding z-score
A: 5.91

Q: # input sequence: ATCTCTAGGTTACAAGTTCAGTGAAAGAGAGGAC ; wanted: its PBM binding z-score
A: 1.77

Q: # input sequence: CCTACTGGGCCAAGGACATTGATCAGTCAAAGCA ; wanted: its PBM binding z-score
A: 0.164

Q: # input sequence: ATCTCTAGGTAACAAGTGCAGTGAAAGAGAGGAC ; wanted: its PBM binding z-score
A: 0.591

Q: # input sequence: CCTACTGTGCCATCAGGTCATTGATATCAACGTT ; wanted: its PBM binding z-score
A: 1.39

Q: # input sequence: ATACCAAGGTGATCGTGAGCTCGTTGATACTAAC ; wanted: its PBM binding z-score
A: -0.316

Q: # input sequence: ACTTACGGGTCAACGAGGTTTTAGCACGCGTATA ; wanted: its PBM binding z-score
A: 1.94

Q: # input sequence: TCTTGTAGATGAAGCAGGTTAAGAAAGCCTGAGT ; wanted: its PBM binding z-score
A: 2.72

Q: # input sequence: CGTCCAAGGTCAGAGAGCTCAGTGAATGCCGAGT ; wanted: its PBM binding z-score
A: 0.0748

Q: # input sequence: TCTTGTAGATCCGCAGGTTAAGAAAGCTGGCCAA ; wanted: its PBM binding z-score
A: 2.55

Q: # input sequence: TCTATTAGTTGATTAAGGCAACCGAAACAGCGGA ; wanted: its PBM binding z-score
A: 3.75

Q: # input sequence: CTGGAAAGGTCGTGCTCAGGTGAGTATACCAAAC ; wanted: its PBM binding z-score
A: 1.04

Q: # input sequence: CGAACTAGGTCAAGGACAGTGAGTCTCCGCACGC ; wanted: its PBM binding z-score
A: 3.52

Q: # input sequence: CAAACTAGGTCAGAGAGGTCAAAGTCCGTGCGTA ; wanted: its PBM binding z-score
A: 4.96

Q: # input sequence: ACAGACAGGTGATGCAGGTAACTCAGGCTATCAT ; wanted: its PBM binding z-score
A: -0.309

Q: # input sequence: CCTATTAGTTGACCATAAGGGCAACGGAAGCTCG ; wanted: its PBM binding z-score
A: 0.321

Q: # input sequence: CCTACTGGGCGATCAGGTCATTGATATCAACGTT ; wanted: its PBM binding z-score
A: 0.0672

Q: # input sequence: CGAACTAGCTCATCCAGGACAGTGAATACATTGA ; wanted: its PBM binding z-score
A: 0.105

Q: # input sequence: CCGACTGGGGCAAAAAGGTTACCATACCATCCGG ; wanted: its PBM binding z-score
A: 0.214

Q: # input sequence: TCGTGTAGATCAATAGAGGTTAAGAAAGTGCGCT ; wanted: its PBM binding z-score
A: 2.53

Q: # input sequence: CAAACTAGGTCACAGCGGTCAAAGTCCGTGCGTA ; wanted: its PBM binding z-score
A: 5.13

Q: # input sequence: GATACAGGGTCAGCTAGAGGCAAGAGTATGGAAA ; wanted: its PBM binding z-score
A: 0.625

Q: # input sequence: ATCTCTAGGCAACAAGTTCAGTGAAAGAGAGGAC ; wanted: its PBM binding z-score
A: 0.633

Q: # input sequence: GCTCGGAGGACAAGGTGAGAGCTTTGTCCGTAGA ; wanted: its PBM binding z-score
A: -1.12

Q: # input sequence: CCTAGCAGGCCAATCTGGGTCAATCAAGGCTTGA ; wanted: its PBM binding z-score
A: -0.105

Q: # input sequence: AGAATGAGGTTACCAAAGATCAGGGATACGCTTG ; wanted: its PBM binding z-score
A: 1.03

Q: # input sequence: ATACCAAGGTGATCGTGAGGTGGTTGATACTAAC ; wanted: its PBM binding z-score
A: 0.226

Q: # input sequence: CCTCGGAGGACAGAAGGTCCGAGCTGTCCGCTTT ; wanted: its PBM binding z-score
A: -1.48

Q: # input sequence: CGTCCAATGTCAAAGGTCAGTGAAGAGATGACGG ; wanted: its PBM binding z-score
A: 4.57

Q: # input sequence: TCTAGTTGGTCACGGAGGTCACACAGGACGGGTA ; wanted: its PBM binding z-score
A: 3.51

Q: # input sequence: TATACAGGGTCAAAGGCCAGATTACGAATGTCGA ; wanted: its PBM binding z-score
A: 5.15

Q: # input sequence: TCAGACAGGTGAAGGTAACCCAGGTACGCAGTCG ; wanted: its PBM binding z-score
A: 3.53

Q: # input sequence: TCGAGTAGGTTAGTCGGCGCATTCAGCCAACATA ; wanted: its PBM binding z-score
A: 0.699

Q: # input sequence: ACTAGTTAGTCAGCTGAGGTCACACACAATTCGG ; wanted: its PBM binding z-score
A: 0.769

Q: # input sequence: GCAAGTTGGTCAGTAAAAGGTCACACACCGGTCG ; wanted: its PBM binding z-score
A: 2.58

Q: # input sequence: CGTCCAAGGTCAGAGACGTCAGTGAATGCCGAGT ; wanted: its PBM binding z-score
A: 0.132

Q: # input sequence: CCTGCTAGGTTAATGGTCAGCTAAAGCAGCTCGC ; wanted: its PBM binding z-score
A: 0.835

Q: # input sequence: TCTTGTAGATCAAAGGTTAAGAGAGCCGAAGCCT ; wanted: its PBM binding z-score
A: 8.05

Q: # input sequence: TCTACTAGTTGAAGGGCAACCGACGAGTCCGTTT ; wanted: its PBM binding z-score
A: 3.03

Q: # input sequence: TGAATGAGATTAAAGATCAGGGAACGTGGCGTCG ; wanted: its PBM binding z-score
A: 1.3

Q: # input sequence: CCTGCTAGGCCAATGGTCAGCTAAAGCAGCTCGC ; wanted: its PBM binding z-score
A: 0.142

Q: # input sequence: TCGAGTAGGTTACGGGCATTCAGAATGGCGTCGA ; wanted: its PBM binding z-score
A: 0.893

Q: # input sequence: TGTCAAAGTTCAAAGGTACCGTAAGTATCCACAC ; wanted: its PBM binding z-score
A: 4.9

Q: # input sequence: CCAGACAGGTGAAAGGTAACTGAGTCTGGTACGC ; wanted: its PBM binding z-score
A: 4.81

Q: # input sequence: TCTAGTTGGTCAAAGGTCACAGACTCGAAATGCG ; wanted: its PBM binding z-score
A: 10.8

Q: # input sequence: TCTTGTAGATCAATAGAGGTTAAGAATGTGCGCT ; wanted: its PBM binding z-score
A: 2.73

Q: # input sequence: GCTCGGAGCACAAGGTCAGAGCTTTGTCCGTAGA ; wanted: its PBM binding z-score
A: -0.387

Q: # input sequence: CCTCGGAGGACAACAGGAGGTCAGAGTTGCCAGA ; wanted: its PBM binding z-score
A: -0.404
